Test system: HEPG2
experimentalProtocol: Euclidean distance of Cell Painting phenotypic profile (signed KS, 77 features) to DMSO centroid (dimensionless distance); 5 or 10 uM (library dependent); higher = stronger phenotypic change vs DMSO (phenoactivity)
measurementSetup: 48 h
Where a name gives a salt, the structure may show the parent alone.
I'd be grateful if you could share measured Euclidean distance for these entries.
Give bare numbers.

CC[C@H]1[C@@H](O)[C@@H]2[C@H](CC[C@]3(C)[C@@H]([C@H](C)CCC(=O)O)CC[C@@H]23)[C@@]2(C)CC[C@@H](O)C[C@@H]12 [Obeticholic Acid] : 0.851
CC1(C)CC(=O)c2c(C(F)(F)F)nn(-c3ccc(C(N)=O)c(N[C@H]4CC[C@H](OC(=O)CN)CC4)c3)c2C1 : 3.05
CNC(=O)c1ccc(N2C(=S)N(c3ccc(C#N)c(C(F)(F)F)c3)C(=O)C2(C)C)cc1F [Enzalutamide (MDV3100)] : 0.965
C[N+](C)(C)CCO.O=C([O-])C(O)C(O)C(=O)O (stereo not given) [Choline bitartrate] : 0.96
O=c1cc(-c2ccccc2)oc2cc(O)cc(O)c12 [Chrysin] : 1.37
O=C(c1c(F)ccc(NS(=O)(=O)N2CC[C@@H](F)C2)c1F)c1c[nH]c2ncc(-c3cnc(C4CC4)nc3)cc12 : 1.2

List reported Euclidean distance for each of these compounds:
1. CCCc1cc(=O)[nH]c(=S)[nH]1 [Propylthiouracil]
2. CNCCC(Oc1ccc(C(F)(F)F)cc1)c1ccccc1 (stereo not given) [Fluoxetine HCl]
3. C=C1/C(=C\C=C2/CCC[C@]3(C)[C@@H]([C@H](C)CCCC(C)C)CC[C@@H]23)C[C@@H](O)C[C@@H]1O [Alfacalcidol]
4. C[C@H](NC(=O)/C(C#N)=C/c1cccc(Br)n1)c1ccccc1

Output:
1. 0.77
2. 1.35
3. 0.811
4. 2.6

* * *

Please respond with reported Euclidean distance for every item in the list.
Test system: FB
experimentalProtocol: Euclidean distance of Cell Painting phenotypic profile (signed KS, 77 features) to DMSO centroid (dimensionless distance); 5 or 10 uM (library dependent); higher = stronger phenotypic change vs DMSO (phenoactivity)
measurementSetup: 48 h
Counter-ions that a name gives are not always drawn.

Known results for molecules:
CC(NCCc1ccc(O)cc1)C(O)c1ccc(O)cc1 (stereo not given) [Ritodrine HCl] : 1.01
O=C1CCCC(=O)C1C(=O)c1ccc(C(F)(F)F)cc1[N+](=O)[O-] : 1
NCCS(=O)(=O)O : 0.921
CO[C@H]1C[C@@H]2CC[C@@H](C)[C@@](O)(O2)C(=O)C(=O)N2CCCC[C@H]2C(=O)O[C@H]([C@H](C)C[C@@H]2CC[C@@H](OC(=O)C(C)(CO)CO)[C@H](OC)C2)CC(=O)[C@H](C)/C=C(\C)[C@@H](O)[C@@H](OC)C(=O)[C@H](C)C[C@H](C)/C=C/C=C/C=C/1C : 2.95

// batch mode: one Euclidean distance value per listed entry
1. C=CC(=O)N1C[C@H](Nc2ncnc3[nH]ccc23)CC[C@@H]1C
2. Cc1cnc(NC(=O)C2=C(O)c3ccccc3S(=O)(=O)N2C)s1

Output:
1: 0.936; 2: 0.881

# return Euclidean distance for each item in the list
1. CC/C=C(\C(=O)N[C@@H]1C(=O)N2C(C(=O)OCOC(=O)C(C)(C)C)=C(COC(N)=O)CS[C@H]12)c1csc(N)n1 [Cefcapene Pivoxil Hydrochloride]
2. O=C(NCC(O)CO)c1c(I)c(C(=O)NCC(O)CO)c(I)c(N(CCO)C(=O)CO)c1I (stereo not given)
3. O=c1[nH]cnc2c1ncn2[C@@H]1O[C@H](CO)[C@@H](O)[C@H]1O
4. CC1(C)OC[C@@H](COC(=O)CCc2ccc(OC[C@@H](O)CNCCNC(=O)N3CCOCC3)cc2)O1 [Landiolol hydrochloride]
5. O=C(O)c1cc(/N=N/c2ccc(S(=O)(=O)Nc3ccccn3)cc2)ccc1O
6. CC1=C(C(=O)O)N2C(=O)[C@@H](NC(=O)[C@H](N)C3=CCC=CC3)[C@H]2SC1
7. CNC(=O)c1ccc(Nc2ncc(C(F)(F)F)c(NCc3nccnc3N(C)S(C)(=O)=O)n2)cc1

Output:
[0.746, 0.679, 0.936, 1.04, 1.14, 1.14, 2.06]

List Euclidean distance for every entry below, keeping the order given.
1. CC(C(O)c1ccc(O)cc1)N1CCC(Cc2ccccc2)CC1 (stereo not given) [Ifenprodil Tartrate]
2. CC[C@@H](C)Nc1cc(C(=O)N[C@H]2C[C@H]3CC[C@@H](C2)N3c2ccc(C(=O)C3CC3)cn2)c(C)cc1C(N)=O
3. CCN1C(=O)C=CC1=O [N-Ethylmaleimide (NEM)]
4. Oc1nc(-c2ccc(C(F)(F)F)cc2)nc2c1CSCC2
5. CN1C(=O)/C(=C2/C(=O)Nc3ccccc32)c2ccccc21
6. N=C(N)NC(=O)c1nc(Cl)c(N)nc1N [Amiloride HCl]
7. CONC(=O)c1ccccc1Nc1cc(Nc2cc(C)nn2C(C)C)ncc1Cl

Output:
[1.22, 3.15, 1.58, 0.913, 2.24, 0.922, 2.01]
